Entry source: the supplement of paper PMC3545927

// furin cleavage Z-score lookup, one value per entry
molecular target: furin, P09958; assay: furin cleavage Z-score vs untreated control; higher = more cleavage, active = 3.5 or more, inactive = 1 or less, 8 variable residues between constant flanks; conditions: 7.5 min;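 also: purified furin at 1:10 enzyme:substrate in 50 mM HEPES pH 7.5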
Sequence (P09958 whole entry): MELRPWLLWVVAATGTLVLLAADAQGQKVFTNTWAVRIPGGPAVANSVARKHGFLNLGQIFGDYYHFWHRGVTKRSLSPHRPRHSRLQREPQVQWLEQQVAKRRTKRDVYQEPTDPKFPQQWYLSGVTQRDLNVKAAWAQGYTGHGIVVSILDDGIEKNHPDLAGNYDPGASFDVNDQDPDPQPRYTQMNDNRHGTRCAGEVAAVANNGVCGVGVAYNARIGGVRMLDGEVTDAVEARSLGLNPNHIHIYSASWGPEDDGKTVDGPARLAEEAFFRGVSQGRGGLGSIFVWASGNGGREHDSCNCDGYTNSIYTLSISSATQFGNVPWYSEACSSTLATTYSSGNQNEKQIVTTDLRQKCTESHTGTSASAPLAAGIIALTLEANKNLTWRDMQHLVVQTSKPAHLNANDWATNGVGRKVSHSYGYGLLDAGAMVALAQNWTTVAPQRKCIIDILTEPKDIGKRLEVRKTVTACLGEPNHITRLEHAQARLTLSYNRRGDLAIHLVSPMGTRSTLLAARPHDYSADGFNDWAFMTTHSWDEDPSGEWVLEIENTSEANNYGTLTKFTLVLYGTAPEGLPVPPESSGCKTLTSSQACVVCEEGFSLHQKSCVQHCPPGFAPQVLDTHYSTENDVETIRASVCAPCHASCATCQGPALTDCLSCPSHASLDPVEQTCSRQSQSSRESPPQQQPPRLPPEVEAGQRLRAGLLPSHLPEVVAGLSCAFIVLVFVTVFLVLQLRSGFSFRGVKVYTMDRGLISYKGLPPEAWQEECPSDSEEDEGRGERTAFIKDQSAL
Some of the results follow. The true hit rate is not given.
// keep it numeric: no unit symbol after the value

Recorded furin cleavage Z-score, per entry:
{"columns": ["sequence-text", "value-observed"],
 "data": [
  ["CALNNTRPPLAGNASASA [HC430]", 2.07],
  ["CAVVCQSMSYAGNASASA [HC99]", 0.407],
  ["CALDGVRLHRAGNASASA [HC1223]", -1.06],
  ["CAGQLDLSGWAGNASASA [HC1642]", -0.176]
]}

Task: // furin cleavage Z-score lookup, key: CAYQATVCARAGNASASA [HC955]
Result: 1.06

Task: Given the entry CAGVRLHRFAAGNASASA [HC1224] , report its measured furin cleavage Z-score.
Result: -0.592

Task: Quick check: furin cleavage Z-score of CAYVSRLRRVAGNASASA [FS-1441] ?
Result: 4.8
